targetSystem: Androgen receptor (Homo sapiens, UniProt P10275)
Sequence (P10275 whole entry): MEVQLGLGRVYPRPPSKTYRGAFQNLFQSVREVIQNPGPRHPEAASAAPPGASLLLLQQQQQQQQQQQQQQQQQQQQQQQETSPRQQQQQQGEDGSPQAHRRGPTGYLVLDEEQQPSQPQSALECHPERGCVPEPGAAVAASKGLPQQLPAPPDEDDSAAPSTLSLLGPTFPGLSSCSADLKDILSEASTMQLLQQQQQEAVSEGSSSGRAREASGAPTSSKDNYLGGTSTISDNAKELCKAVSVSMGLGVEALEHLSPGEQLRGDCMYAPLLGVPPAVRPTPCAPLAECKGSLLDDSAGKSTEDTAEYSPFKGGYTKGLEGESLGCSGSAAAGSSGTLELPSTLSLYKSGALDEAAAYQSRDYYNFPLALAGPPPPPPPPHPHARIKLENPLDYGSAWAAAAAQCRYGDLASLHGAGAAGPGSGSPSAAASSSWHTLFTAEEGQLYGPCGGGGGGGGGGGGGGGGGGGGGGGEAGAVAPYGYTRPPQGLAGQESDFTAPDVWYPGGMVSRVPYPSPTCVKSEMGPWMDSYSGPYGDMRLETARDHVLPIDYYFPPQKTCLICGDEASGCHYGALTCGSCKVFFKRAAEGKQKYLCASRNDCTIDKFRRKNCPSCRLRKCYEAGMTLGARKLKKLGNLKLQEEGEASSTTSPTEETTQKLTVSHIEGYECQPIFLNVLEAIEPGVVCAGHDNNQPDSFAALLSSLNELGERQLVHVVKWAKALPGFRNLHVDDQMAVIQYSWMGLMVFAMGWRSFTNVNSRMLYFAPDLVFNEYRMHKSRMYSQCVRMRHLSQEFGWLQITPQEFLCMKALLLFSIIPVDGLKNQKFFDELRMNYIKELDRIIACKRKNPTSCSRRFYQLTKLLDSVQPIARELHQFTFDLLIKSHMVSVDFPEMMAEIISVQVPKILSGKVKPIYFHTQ
experimentalDetails: Binding affinity to human recombinant androgen receptor expressed in baculovirus infected Sf9 cells
readoutKind: IC50

Q. Entry under review: Cc1ccc2c(NCC(O)(CC(C)(C)c3cc(F)ccc3O)C(F)(F)F)cccc2n1 (stereo not given) . Reported IC50?
A. > 1000 nM

Q. Which IC50 reading was recorded for the compound COc1ccc(F)cc1C(C)(C)CC(O)(CNc1cccc2ncccc12)C(F)(F)F (stereo not given) ?
A. > 1000 nM

Q. Consider the compound Cc1noc(=O)c2ccc(NC(=O)C(O)(CC(C)(C)c3cc(F)ccc3O)C(F)(F)F)cc12 (stereo not given) and give its measured IC50.
A. 158 nM

Q. Quick one: IC50 of Cc1noc(=O)c2ccc(NC(=O)C(O)(CC(C)(C)c3cccc4c3OCC4)C(F)(F)F)cc12 (stereo not given) ?
A. 631 nM

Q. May I ask what IC50 has been recorded for COc1ccc(F)cc1C(C)(C)CC(O)(C(=O)Nc1ccc2c(=O)onc(C)c2c1)C(F)(F)F (stereo not given) ?
A. 501 nM

Q. Recorded IC50 of COc1ccc(F)cc1C(C)(C)CC(O)(CNc1cccc2ccccc12)C(F)(F)F (stereo not given) , please.
A. > 1000 nM

Q. Which measured IC50 value corresponds to COc1ccc(F)cc1C(C)(C)CC(O)(CNc1cccc2nc(C)ccc12)C(F)(F)F (stereo not given) ?
A. > 1000 nM

Q. Record request: IC50 value, item COc1ccc(F)cc1C(C)(C)CC(O)(CNc1ccc2c(=O)onc(C)c2c1)C(F)(F)F (stereo not given)
A. > 1000 nM

Q. Entry CC(C)(CC(O)(CNc1cccc2ncccc12)C(F)(F)F)c1cc(F)ccc1O (stereo not given) has what IC50?
A. > 1000 nM

Q. For the compound CC(C)(CC(O)(CNc1cccc2ccccc12)C(F)(F)F)c1cc(F)ccc1O (stereo not given) , what IC50 is on record?
A. > 1000 nM

---

targetSystem: Glucocorticoid receptor (Homo sapiens, UniProt P04150)
experimentalDetails: Transrepression activity at glucocorticoid receptor-mediated antiinflammatory activity in human THP1 cells assessed as inhibition of LPS-induced IL-8 production
Assay type: cell-based, THP-1
Provide the recorded pIC50 for the entries that follow.
To interpret pIC50, take it as minus log10 of a concentration measured in moles per litre.

Q. I would be grateful if you could share the reported pIC50 for Cc1ccc2c(NCC(O)(CC(C)(C)c3cc(F)ccc3O)C(F)(F)F)cccc2n1 (stereo unspecified) .
A. 8.30

Q. Could you share which pIC50 value was measured for COc1ccc(F)cc1C(C)(C)CC(O)(CNc1cccc2nc(C)ccc12)C(F)(F)F (stereo unspecified) ?
A. 7.60

Q. Given the entry CC(C)(CC(O)(CNc1cccc2ncccc12)C(F)(F)F)c1cc(F)ccc1O (stereo unspecified) , report its measured pIC50.
A. 7.70

Q. Param item = Cc1noc(=O)c2ccc(NC(=O)C(O)(CC(C)(C)c3cc(F)ccc3O)C(F)(F)F)cc12 (stereo unspecified) ; retrieve measured pIC50.
A. 7.30

Q. Recorded pIC50 of COc1ccc(F)cc1C(C)(C)CC(O)(CNc1cccc2ncccc12)C(F)(F)F (stereo unspecified) , please.
A. 7.60

---

Give IC50 for every item shown.
targetSystem: Glucocorticoid receptor (Homo sapiens)
experimentalDetails: Binding affinity to human recombinant glucocorticoid receptor expressed in baculovirus infected Sf9 cells
The reply should be a number in nM, with the unit left off.

Q. Bench note: what IC50 did CC(C)(CC(O)(CNc1cccc2ncccc12)C(F)(F)F)c1cc(F)ccc1O (centres undefined) show?
A. 1

Q. What value of IC50 has been reported for the following compound? COc1ccc(F)cc1C(C)(C)CC(O)(CNc1cccc2ncccc12)C(F)(F)F (centres undefined)
A. 20

Q. Field request: IC50 | item: CC(C)(CC(O)(CNc1cccc2ccccc12)C(F)(F)F)c1cc(F)ccc1O (centres undefined)
A. 15.8

Q. What value of IC50 has been reported for the following compound? Cc1noc(=O)c2ccc(NC(=O)C(O)(CC(C)(C)c3cc(F)ccc3O)C(F)(F)F)cc12 (centres undefined)
A. 3.16

Q. Which measured IC50 value corresponds to COc1ccc(F)cc1C(C)(C)CC(O)(CNc1ccc2c(=O)onc(C)c2c1)C(F)(F)F (centres undefined) ?
A. 10

Q. GET /values?readout=IC50&item= COc1ccc(F)cc1C(C)(C)CC(O)(CNc1cccc2nc(C)ccc12)C(F)(F)F (centres undefined)
A. 0.631

Q. Please report the recorded IC50 for COc1ccc(F)cc1C(C)(C)CC(O)(C(=O)Nc1ccc2c(=O)onc(C)c2c1)C(F)(F)F (centres undefined) .
A. 1

Q. I have this compound here, Cc1ccc2c(NCC(O)(CC(C)(C)c3cc(F)ccc3O)C(F)(F)F)cccc2n1 (centres undefined) , and I need its recorded IC50.
A. 6.31

---

targetSystem: Mineralocorticoid receptor (Homo sapiens)
Sequence (P08235 whole entry): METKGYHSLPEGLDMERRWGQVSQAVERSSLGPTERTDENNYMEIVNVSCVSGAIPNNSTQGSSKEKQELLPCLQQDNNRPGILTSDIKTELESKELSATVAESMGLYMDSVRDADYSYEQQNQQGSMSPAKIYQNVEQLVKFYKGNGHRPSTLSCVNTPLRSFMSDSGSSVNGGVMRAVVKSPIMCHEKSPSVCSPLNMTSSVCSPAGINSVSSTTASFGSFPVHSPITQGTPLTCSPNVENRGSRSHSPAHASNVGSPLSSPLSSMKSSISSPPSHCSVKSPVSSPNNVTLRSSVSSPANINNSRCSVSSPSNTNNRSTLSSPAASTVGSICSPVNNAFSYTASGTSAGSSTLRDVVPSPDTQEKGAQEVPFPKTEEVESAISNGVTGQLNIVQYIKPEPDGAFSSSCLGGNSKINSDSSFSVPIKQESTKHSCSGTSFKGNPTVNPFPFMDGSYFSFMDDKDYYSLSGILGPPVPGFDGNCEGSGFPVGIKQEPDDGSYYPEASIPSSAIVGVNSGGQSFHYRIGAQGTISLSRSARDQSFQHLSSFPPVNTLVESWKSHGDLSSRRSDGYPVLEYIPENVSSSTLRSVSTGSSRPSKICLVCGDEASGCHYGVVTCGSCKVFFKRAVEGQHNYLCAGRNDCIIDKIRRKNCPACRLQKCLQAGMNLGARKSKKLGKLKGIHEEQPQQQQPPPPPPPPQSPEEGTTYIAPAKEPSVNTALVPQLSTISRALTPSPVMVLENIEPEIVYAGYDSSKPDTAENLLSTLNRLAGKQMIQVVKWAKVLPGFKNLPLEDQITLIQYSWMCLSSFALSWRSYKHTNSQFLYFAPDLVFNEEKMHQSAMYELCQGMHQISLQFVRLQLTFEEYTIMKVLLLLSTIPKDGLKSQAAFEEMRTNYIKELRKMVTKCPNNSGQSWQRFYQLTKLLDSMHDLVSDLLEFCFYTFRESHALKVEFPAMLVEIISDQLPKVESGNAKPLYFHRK
experimentalDetails: Binding affinity to human recombinant mineralocorticoid receptor expressed in baculovirus infected Sf9 cells
pIC50: −log10 of the molar value.
readoutKind: pIC50

Q. Item COc1ccc(F)cc1C(C)(C)CC(O)(CNc1ccc2c(=O)onc(C)c2c1)C(F)(F)F (stereo not given) has what recorded pIC50?
A. < 6.00

Q. Looking for the measured pIC50 of Cc1ccc2c(NCC(O)(CC(C)(C)c3cc(F)ccc3O)C(F)(F)F)cccc2n1 (stereo not given) , can you help?
A. < 6.00

Q. Which pIC50 is reported for this compound? CC(C)(CC(O)(CNc1cccc2ncccc12)C(F)(F)F)c1cc(F)ccc1O (stereo not given)
A. < 6.00

Q. Bench note: what pIC50 did Cc1noc(=O)c2ccc(NC(=O)C(O)(CC(C)(C)c3cccc4c3OCC4)C(F)(F)F)cc12 (stereo not given) show?
A. 7.10

Q. Can you share its pIC50? I mean this compound: COc1ccc(F)cc1C(C)(C)CC(O)(CNc1cccc2nc(C)ccc12)C(F)(F)F (stereo not given)
A. < 6.00

---

targetSystem: Mineralocorticoid receptor (Homo sapiens)
experimentalDetails: Binding affinity to human recombinant mineralocorticoid receptor expressed in baculovirus infected Sf9 cells
So I've got a bunch of compounds here, and I need their IC50 values.
Output spec: scalar in nM, unitless text.

Q. Requested field: IC50. Item: Cc1noc(=O)c2ccc(NC(=O)C(O)(CC(C)(C)c3cc(F)ccc3O)C(F)(F)F)cc12 (stereo not given)
A. 1.26

Q. Any idea what IC50 was measured for COc1ccc(F)cc1C(C)(C)CC(O)(C(=O)Nc1ccc2c(=O)onc(C)c2c1)C(F)(F)F (stereo not given) ?
A. 7.94

---

targetSystem: Glucocorticoid receptor (Homo sapiens, UniProt P04150)
Sequence (P04150 whole entry): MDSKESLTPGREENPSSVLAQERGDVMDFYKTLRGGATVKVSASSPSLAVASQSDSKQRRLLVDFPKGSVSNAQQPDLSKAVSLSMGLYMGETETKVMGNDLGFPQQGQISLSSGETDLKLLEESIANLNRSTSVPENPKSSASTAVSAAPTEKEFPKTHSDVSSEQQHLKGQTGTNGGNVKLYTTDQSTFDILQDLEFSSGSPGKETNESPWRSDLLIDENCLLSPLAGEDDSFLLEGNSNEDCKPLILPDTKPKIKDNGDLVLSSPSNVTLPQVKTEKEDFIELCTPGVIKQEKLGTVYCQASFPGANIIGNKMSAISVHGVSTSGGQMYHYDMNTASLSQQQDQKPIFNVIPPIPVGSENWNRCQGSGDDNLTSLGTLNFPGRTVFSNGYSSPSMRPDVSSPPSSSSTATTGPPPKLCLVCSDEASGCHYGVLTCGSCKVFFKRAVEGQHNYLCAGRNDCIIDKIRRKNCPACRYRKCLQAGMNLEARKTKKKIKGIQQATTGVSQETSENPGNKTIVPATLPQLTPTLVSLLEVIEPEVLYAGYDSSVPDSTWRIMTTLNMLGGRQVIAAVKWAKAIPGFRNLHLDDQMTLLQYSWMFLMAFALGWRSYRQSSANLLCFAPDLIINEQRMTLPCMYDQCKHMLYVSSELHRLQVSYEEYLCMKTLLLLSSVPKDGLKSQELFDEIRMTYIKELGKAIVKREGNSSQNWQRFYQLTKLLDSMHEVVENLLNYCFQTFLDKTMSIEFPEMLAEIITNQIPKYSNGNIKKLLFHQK
experimentalDetails: Transactivation activity at glucocorticoid receptor in human HeLa cells assessed as induction of MMTV promoter activity by luciferase reporter gene assay
What pEC50 was measured for each of the following?
pEC50 here is simply -log10 of the concentration when that concentration is written in mol/L.

Q. Given the compound Cc1noc(=O)c2ccc(NC(=O)C(O)(CC(C)(C)c3cc(F)ccc3O)C(F)(F)F)cc12 (centres undefined) , what is its reported pEC50?
A. 7.60

Q. Any idea what pEC50 was measured for CC(C)(CC(O)(CNc1cccc2ncccc12)C(F)(F)F)c1cc(F)ccc1O (centres undefined) ?
A. 7.10

Q. Name the reported pEC50 value associated with the compound COc1ccc(F)cc1C(C)(C)CC(O)(CNc1cccc2nc(C)ccc12)C(F)(F)F (centres undefined)
A. 7.60

Q. Would you kindly share the measured pEC50 for Cc1ccc2c(NCC(O)(CC(C)(C)c3cc(F)ccc3O)C(F)(F)F)cccc2n1 (centres undefined) ?
A. 7.90

Cited source for all entries: ChEMBL document CHEMBL1255506
